Data origin: the supplement of paper PMC6757056

B1: library; a variant is named by its letters at N, in order (parent)
chain: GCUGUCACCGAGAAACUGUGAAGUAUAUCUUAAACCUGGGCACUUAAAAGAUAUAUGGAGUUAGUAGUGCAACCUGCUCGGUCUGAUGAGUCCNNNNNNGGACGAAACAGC

Variants of: B1
Test: normalized RNA/DNA level with ligand (relative to sTRSVctl = 100) (log10 (% of sTRSVctl)); HEK293T; ligand: cyclic di-GMP (c-di-GMP-II aptamer); ligand concentration (+) RNA-Seq: 1 mM; higher = less ribozyme self-cleavage, higher mRNA level
Conditions: reporter: mCherry (pCS4076), ligand present: yes
valueType: normalized RNA/DNA level with ligand (log10)
Write no unit; give the number alone.

mutationDescriptor | reading
UCGGAU | 1.68

(Q) Read the entry UUAUAA and write its reported normalized RNA/DNA level with ligand (log10).
(A) 1.81

(Q) Dear colleague, please send me the reported normalized RNA/DNA level with ligand (log10) for GAGGAU when you can.
(A) 1.77

(Q) Dear colleague, please send me the reported normalized RNA/DNA level with ligand (log10) for GUCGAU when you can.
(A) 1.71

(Q) Return the recorded normalized RNA/DNA level with ligand (log10) value; entry: CUCAAA
(A) 1.59

(Q) Give normalized RNA/DNA level with ligand (log10) for UGAUGU
(A) 1.84

(Q) Please give measured normalized RNA/DNA level with ligand (log10) of the following entry: AACCGC
(A) 1.86

(Q) Output measured normalized RNA/DNA level with ligand (log10) for this item: AUCUGU
(A) 1.88

(Q) Tell me measured normalized RNA/DNA level with ligand (log10) for GACUGC please.
(A) 1.88

(Q) Note down normalized RNA/DNA level with ligand (log10) recorded for GACCCG
(A) 1.86
